- Test system: myeloid leukemia patient primary cells Pat.12
- method.summary: area under dose-response curve (viability, 1 nM-10 uM) (fraction (0-1)); higher = more sensitive
- experimental.context: 72 h
area under dose-response curve for assorted compounds
property.measured: area under dose-response curve

| compound | system | property.measured | comparison.symbol | test.result |
| --- | --- | --- | --- | --- |
| O=C(O)Cn1nnc(-c2cc(N3CCC(Oc4cc(F)ccc4Br)CC3)no2)n1 | myeloid leukemia patient primary cells Pat.12 | area under dose-response curve | < | 0.0301 |
| C[C@H](NC(=O)c1sccc1OCc1ccc(Cl)cc1)c1ccccc1 | myeloid leukemia patient primary cells Pat.12 | area under dose-response curve | < | 0.0301 |
| COC(=O)[C@]12CCC(C)(C)C[C@H]1[C@H]1C(=O)C=C3[C@@]4(C)C=C(C#N)C(=O)C(C)(C)[C@@H]4CC[C@@]3(C)[C@]1(C)CC2 | myeloid leukemia patient primary cells Pat.12 | area under dose-response curve | = | 0.0322 |
| Oc1ccc(Nc2nc(-c3ccc(Cl)cc3)cs2)cc1 | myeloid leukemia patient primary cells Pat.12 | area under dose-response curve | = | 0.0339 |
| C=C(C=NNC(=N)N)NNC(=N)N | myeloid leukemia patient primary cells Pat.12 | area under dose-response curve | < | 0.0301 |
| O=C1O/C(=C/Br)CCC1c1cccc2ccccc12 (configuration not stated) | myeloid leukemia patient primary cells Pat.12 | area under dose-response curve | = | 0.084 |
| CCC(=O)N1CCN(c2ccc(-n3c(=O)ccc4cnc5ccc(-c6cnc7ccccc7c6)cc5c43)cc2C(F)(F)F)CC1 | myeloid leukemia patient primary cells Pat.12 | area under dose-response curve | < | 0.0301 |

# credit: the supplement of paper PMC8671470
